Field: CC50. Provide a value for each of the compounds that follow.
- Test system: HeLa
- protocolDetails: Antiproliferative activity against human P53-deficient HeLa cells after 72 hrs by celltiter-blue cell viability assay
- Assay type: functional
Please reply with the bare figure in nM and do not write the unit itself.

So what does the record say about CC50 for CCC(=O)CCCCC[C@H](NC(=O)C1CN(C)C1)c1ncc(-c2cc(OC)c3ccccc3n2)[nH]1 ?
970

Entry to check: CCC(=O)CCCCC[C@H](NC(=O)C1CN(C)C1)c1ncc(-c2cnc3ccccc3n2)[nH]1
430

Next compound up: CCC(=O)CCCCC[C@H](NC(=O)C1CN(C)C1)c1ncc(-c2cc3ccccc3nc2OC)[nH]1
135

CCC(=O)CCCCC[C@H](NC(=O)C1CCN(C)CC1)c1ncc(-c2ccc3ccccc3n2)[nH]1 ?
480

====

- protocolDetails: Terminal half life in Sprague-Dawley rat at 3 mg/kg, iv and 3 mg/kg, po
- Assay type: ADME, organism-based
- measurementParameters: in vivo, read-out: beta t1/2 (converted)
recordedMetric: half-life

# input compound: CCC(=O)CCCCC[C@H](NC(=O)C1CN(C)C1)c1ncc(-c2cc3ccccc3nc2OC)[nH]1 ; wanted: its half-life
7 h

====

- protocolDetails: Metabolic stability in dog liver microsomes assessed as intrinsic clearance at 1 uM after 90 mins
- Type: ADME, Canis lupus familiaris, Microsome
- measurementParameters: liver microsomes
recordedMetric: log10 microsomal CLint at 1 µM (log10 of the value in µL/min/mg)
All values: base-10 log of microsomal CLint at 1 µM in µL/min/mg.

Entry CCC(=O)CCCCC[C@H](NC(=O)C1CCN(C)CC1)c1ncc(-c2ccc3ncccc3c2)[nH]1 : reported log10 microsomal CLint at 1 µM = ?
1.36

Same for CCC(=O)CCCCC[C@H](NC(=O)C1CCN(C)CC1)c1ncc(-c2ccc3ccccc3c2)[nH]1
2.29

Lookup CCC(=O)CCCCC[C@H](NC(=O)C1CN(C)C1)c1ncc(-c2cc3ccccc3nc2F)[nH]1
1.45

What would you report for CCC(=O)CCCCC[C@H](NC(=O)C1CCN(C)CC1)c1ncc(-c2cnc3ccccc3c2)[nH]1 ?
1.38

Same again, this time with CCC(=O)CCCCC[C@H](NC(=O)C1CN(C)C1)c1ncc(-c2cc(OC)c3ccccc3n2)[nH]1
0.95

====

- assaySystem: Histone deacetylase 7 (Homo sapiens)
- Sequence (Q8WUI4 whole entry): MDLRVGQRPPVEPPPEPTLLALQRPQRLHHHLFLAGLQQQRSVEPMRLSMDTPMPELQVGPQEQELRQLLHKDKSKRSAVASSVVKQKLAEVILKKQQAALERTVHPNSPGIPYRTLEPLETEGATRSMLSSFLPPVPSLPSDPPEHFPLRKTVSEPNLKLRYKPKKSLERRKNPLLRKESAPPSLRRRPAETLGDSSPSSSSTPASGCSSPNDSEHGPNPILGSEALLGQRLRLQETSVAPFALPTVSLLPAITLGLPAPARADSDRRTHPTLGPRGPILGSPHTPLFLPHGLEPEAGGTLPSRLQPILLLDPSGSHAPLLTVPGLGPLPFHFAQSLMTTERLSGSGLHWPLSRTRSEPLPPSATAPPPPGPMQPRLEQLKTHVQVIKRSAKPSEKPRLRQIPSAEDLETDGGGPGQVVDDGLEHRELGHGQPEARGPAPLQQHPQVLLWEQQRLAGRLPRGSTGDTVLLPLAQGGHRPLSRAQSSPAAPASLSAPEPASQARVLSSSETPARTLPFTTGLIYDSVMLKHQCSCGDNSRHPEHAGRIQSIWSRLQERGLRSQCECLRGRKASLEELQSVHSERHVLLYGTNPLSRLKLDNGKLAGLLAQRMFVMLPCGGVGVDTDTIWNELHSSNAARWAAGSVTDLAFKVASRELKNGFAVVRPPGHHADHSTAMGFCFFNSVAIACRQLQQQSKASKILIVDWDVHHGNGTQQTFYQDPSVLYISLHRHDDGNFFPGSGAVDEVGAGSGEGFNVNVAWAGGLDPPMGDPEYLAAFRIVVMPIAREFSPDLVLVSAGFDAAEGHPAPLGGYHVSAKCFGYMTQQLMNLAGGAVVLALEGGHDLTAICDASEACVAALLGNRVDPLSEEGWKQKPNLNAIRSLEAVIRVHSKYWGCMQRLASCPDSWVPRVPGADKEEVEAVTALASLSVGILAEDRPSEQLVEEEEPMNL
recordedMetric: IC50

Using the record for CCC(=O)CCCCC[C@H](NC(=O)C1CN(C)C1)c1ncc(-c2cc3ccccc3nc2OC)[nH]1 , report its IC50.
> 10 µM

====

- protocolDetails: Oral bioavailability in Sprague-Dawley rat at 3 mg/kg
- Assay type: ADME, organism-based
- measurementParameters: in vivo
recordedMetric: bioavailability
# output: numeric value plus its unit

Quick one: bioavailability for CCC(=O)CCCCC[C@H](NC(=O)C1CN(C)C1)c1ncc(-c2cc3ccccc3nc2OC)[nH]1 ?
73%

====

- protocolDetails: Volume of distribution at steady state in Sprague-Dawley rat at 3 mg/kg, iv and 3 mg/kg, po
- Type: ADME, organism-based
- measurementParameters: in vivo, read-out: Vdss
recordedMetric: Vd (L/kg)
Reply numerically in L/kg, unit not repeated.

Any idea what its Vd is? The molecule is CCC(=O)CCCCC[C@H](NC(=O)C1CN(C)C1)c1ncc(-c2cc3ccccc3nc2OC)[nH]1
7.9

====

- protocolDetails: Toxicity in ip dosed BALB/c nu/nu mouse assessed as maximum tolerated dose
- Format: organism-based
- measurementParameters: in vivo
recordedMetric: MTD (mg/kg)
Output spec: scalar in mg/kg, unitless text.

Which measured MTD value corresponds to CCC(=O)CCCCC[C@H](NC(=O)C1CN(C)C1)c1ncc(-c2cc3ccccc3nc2OC)[nH]1 ?
10

====

- protocolDetails: Metabolic stability in dog liver microsomes assessed as intrinsic clearance at 1 uM after 90 mins
- Assay type: ADME, Canis lupus familiaris, Microsome
- measurementParameters: liver microsomes
Can you tell me microsomal CLint at 1 µM for the items I'm about to list?
Entry rule: numbers only, all in µL/min/mg.

What value of microsomal CLint at 1 µM has been recorded for this entry: CCC(=O)CCCCC[C@H](NC(=O)CCN1CCN(C)CC1)c1ncc(-c2cc(OC)c3ccccc3n2)[nH]1
170

Now try CCC(=O)CCCCC[C@H](NC(=O)C1CCN(C)CC1)c1ncc(-c2cc3ccccc3cn2)[nH]1 .
18

Thanks! And CCC(=O)CCCCC[C@H](NC(=O)C1CCN(C)CC1)c1ncc(-c2cc(OC)c3ccccc3n2)[nH]1 ?
5

What about this compound? CCC(=O)CCCCC[C@H](NC(=O)C1CCN(C)CC1)c1ncc(-c2ccc3ccccc3n2)[nH]1
9

Moving on to the next compound: CCC(=O)CCCCC[C@H](NC(=O)CCN(C)C)c1ncc(-c2cc(OC)c3ccccc3n2)[nH]1
6

Try this compound too: CCC(=O)CCCCC[C@H](NC(=O)C1CN(C)C1)c1ncc(-c2cnc3ccccc3n2)[nH]1
20

// repeat for CCC(=O)CCCCC[C@H](NC(=O)C1CN(C)C1)c1ncc(-c2ccc3nccnc3c2)[nH]1 and report
3

Queued: CCC(=O)CCCCC[C@H](NC(=O)C1CN(C)C1)c1ncc(-c2cc3ccccc3nc2OC)[nH]1
29

====

List of pIC50 tested on Histone deacetylase 1 (Homo sapiens).
Sequence (Q13547 whole entry): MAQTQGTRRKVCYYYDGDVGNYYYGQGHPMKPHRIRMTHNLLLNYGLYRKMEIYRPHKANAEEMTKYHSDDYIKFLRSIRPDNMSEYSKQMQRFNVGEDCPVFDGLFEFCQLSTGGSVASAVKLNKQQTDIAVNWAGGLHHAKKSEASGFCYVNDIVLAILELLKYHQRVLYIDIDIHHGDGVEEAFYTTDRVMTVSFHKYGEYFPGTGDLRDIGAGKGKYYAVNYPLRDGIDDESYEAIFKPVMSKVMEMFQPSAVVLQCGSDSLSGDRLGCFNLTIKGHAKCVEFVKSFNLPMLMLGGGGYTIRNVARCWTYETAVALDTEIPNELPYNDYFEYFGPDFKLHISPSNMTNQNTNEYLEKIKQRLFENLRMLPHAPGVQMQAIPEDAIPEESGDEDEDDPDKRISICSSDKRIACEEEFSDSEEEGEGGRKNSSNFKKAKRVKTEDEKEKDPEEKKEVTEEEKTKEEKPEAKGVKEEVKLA
Conceptually, pIC50 converts a concentration in mol/L into minus its log10.

Using the record for CCC(=O)CCCCC[C@H](NC(=O)C1CCN(C)CC1)c1ncc(-c2cnc3ccccc3c2)[nH]1 , report its pIC50.
8.40

Same lookup for CCC(=O)CCCCC[C@H](NC(=O)C1CCN(C)CC1)c1ncc(-c2ccc3ncccc3c2)[nH]1 , please.
8.70

Please give the result for CCC(=O)CCCCC[C@H](NC(=O)C1CCN(C)CC1)c1ncc(-c2cc3ccccc3cn2)[nH]1 too.
8.10

====

- protocolDetails: Oral bioavailability in Beagle dog at 2 mg/kg
- Assay type: ADME, organism-based, Canis lupus familiaris
- measurementParameters: in vivo
recordedMetric: bioavailability (%)
Respond with the bare value in %.

bioavailability lookup needed for CCC(=O)CCCCC[C@H](NC(=O)C1CN(C)C1)c1ncc(-c2cc3ccccc3nc2OC)[nH]1 , thanks.
31

====

- assaySystem: Cytochrome P450 2C9 (Homo sapiens)
- Sequence (P11712 whole entry): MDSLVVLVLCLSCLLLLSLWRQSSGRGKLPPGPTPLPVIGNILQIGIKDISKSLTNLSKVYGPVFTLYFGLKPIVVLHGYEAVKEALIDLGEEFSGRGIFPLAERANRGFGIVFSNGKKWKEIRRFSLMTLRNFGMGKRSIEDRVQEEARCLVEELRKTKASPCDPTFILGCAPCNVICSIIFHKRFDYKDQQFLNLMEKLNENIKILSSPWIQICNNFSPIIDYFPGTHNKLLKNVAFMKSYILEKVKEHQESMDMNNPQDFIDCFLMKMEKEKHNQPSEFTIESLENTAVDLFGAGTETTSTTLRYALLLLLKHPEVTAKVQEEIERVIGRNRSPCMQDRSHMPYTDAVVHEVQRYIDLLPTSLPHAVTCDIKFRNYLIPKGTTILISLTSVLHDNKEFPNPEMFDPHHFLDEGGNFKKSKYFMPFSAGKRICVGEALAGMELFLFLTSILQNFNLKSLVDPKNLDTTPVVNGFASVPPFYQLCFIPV
recordedMetric: pIC50
pIC50 field: float, defined as -log10 of concentration (mol/L).

Would you mind telling me what pIC50 value was observed for CCC(=O)CCCCC[C@H](NC(=O)C1CN(C)C1)c1ncc(-c2cc3ccccc3nc2OC)[nH]1 ?
5.26

====

- protocolDetails: Clearance in Sprague-Dawley rat plasma at 3 mg/kg, iv and 3 mg/kg, po
- Assay type: ADME, organism-based
recordedMetric: clearance
Lab note: write values as number then unit, every time.

What does the record list as clearance for CCC(=O)CCCCC[C@H](NC(=O)C1CN(C)C1)c1ncc(-c2cc3ccccc3nc2OC)[nH]1 ?
19 mL/min/kg

Continue with CCC(=O)CCCCC[C@H](NC(=O)C1CN(C)C1)c1ncc(-c2cc(OC)c3ccccc3n2)[nH]1
20 mL/min/kg

And for CCC(=O)CCCCC[C@H](NC(=O)C1CCN(C)CC1)c1ncc(-c2cc(OC)c3ccccc3n2)[nH]1 ?
36 mL/min/kg

Let us now turn to CCC(=O)CCCCC[C@H](NC(=O)CCN(C)C)c1ncc(-c2cc(OC)c3ccccc3n2)[nH]1
59 mL/min/kg

Next compound up: CCC(=O)CCCCC[C@H](NC(=O)C1CCN(C)CC1)c1ncc(-c2ccc3ccccc3n2)[nH]1
155 mL/min/kg

Each recorded value in this set is attributed to ChEMBL document CHEMBL1136937.
